The reported numbers originate from ChEMBL document CHEMBL4043108.

# Tested on: MDA-MB-468
# test.name: Cytotoxic activity against human MDA-MB-468 cells incubated for 24 hrs by MTT assay
# Format: functional, cell-based
# applied.conditions: MDA-MB-468, 24 h
measurement.name: IC50

For the compound "O=C1O[C@@H]2CC[C@@H]3[C@H](O)CC=C1[C@@]32O" , report IC50. > 50 µM

For the compound "C=C1C(=O)O[C@@H]2CC[C@H](CBr)[C@]12OC(C)=O" , report IC50. > 50 µM

For the compound "C=C1C(=O)O[C@@H]2CC[C@H](CF)[C@]12O" , report IC50. 22.6 µM

For the compound "O=C1O[C@@H]2CC[C@H](CBr)[C@]2(O)[C@]12CO2" , report IC50. > 50 µM

For the compound "C=C1C(=O)O[C@@H]2CC[C@H](CBr)[C@]12OC" , report IC50. 7.91 µM

For the compound "C=C1C(=O)O[C@@H]2CC[C@H](CBr)[C@]12O" , report IC50. 11.8 µM

For the compound "C[C@H]1C=C2C(=O)O[C@@H]3CC[C@H](C1=O)[C@]23O" , report IC50. > 50 µM

For the compound "C=C1C(=O)O[C@@H]2CC[C@H](COC)[C@]12O" , report IC50. > 50 µM

For the compound "C=C1C(=O)O[C@@H]2CC[C@H](CO)[C@H]12" , report IC50. > 50 µM

For the compound "C=C1C(=O)O[C@@H]2CC[C@H](CI)[C@]12O" , report IC50. 23.6 µM

For the compound "C[C@@H]1C=C2C(=O)O[C@@H]3CC[C@H]([C@H]1O)[C@]23O" , report IC50. > 50 µM

For the compound "C[C@H]1C=C2C(=O)O[C@@H]3CC[C@H]([C@@H]1O)[C@]23O" , report IC50. > 50 µM

For the compound "C[C@@H]1C=C2C(=O)O[C@@H]3CC[C@H](C1)[C@]23O" , report IC50. 17.5 µM

For the compound "C=C1C(=O)C[C@@H]2CC[C@H](CO)[C@]12O" , report IC50. > 50 µM

For the compound "C[C@@H]1C(=O)O[C@@H]2CC[C@H](CBr)[C@]12O" , report IC50. > 50 µM

For the compound "C=C1C(=O)O[C@@H]2CC[C@H](CO)[C@]12OC" , report IC50. > 50 µM

For the compound "C=CC[C@H](O)[C@H]1CC[C@H]2OC(=O)C(=C)[C@@]12O" , report IC50. 44.1 µM

For the compound "C=C1C(=O)O[C@@H]2CC[C@H](CCl)[C@]12O" , report IC50. > 50 µM

For the compound "C=C1C(=O)O[C@@H]2CC[C@H](COC)[C@]12OC" , report IC50. > 50 µM

For the compound "C=CCC(=O)[C@H]1CC[C@H]2OC(=O)C(=C)[C@@]12O" , report IC50. 42.4 µM

For the compound "C=C[C@@H](C)[C@H](O)[C@H]1CC[C@H]2CC(=O)C(=C)[C@]21O" , report IC50. > 50 µM

----------
Consider the following compounds; for each one, report its IC50.
# Tested on: MDA-MB-468
# test.name: Cytotoxic activity against human MDA-MB-468 cells incubated for 24 hrs by MTT assay
# Type: functional, cell-based
# applied.conditions: MDA-MB-468, 24 h

For the compound "CN[C@@H]1C[C@H]2O[C@@](C)([C@@H]1OC)n1c3ccccc3c3c4c(c5c6ccccc6n2c5c31)C(=O)NC4" , report IC50. 0.15 µM

For the compound "C=CC[C@@H](O)[C@H]1CC[C@H]2OC(=O)C(=C)[C@@]12O" , report IC50. > 50 µM

For the compound "C=C[C@H](C)[C@@H](O)[C@H]1CC[C@H]2CC(=O)C(=C)[C@]21O" , report IC50. > 50 µM

For the compound "C=C1C(=O)O[C@@H]2CC[C@H](CBr)[C@]12OCC" , report IC50. 7.81 µM

For the compound "C=C1C(=O)O[C@@H]2CC[C@H](CBr)[C@H]12" , report IC50. 42.6 µM

For the compound "O=C1O[C@@H]2CC[C@@H]3[C@@H](O)CC=C1[C@@]32O" , report IC50. > 50 µM
